Documented IC50 (mut)/IC50 (wt) across a set of binders
Target: T1, IGFBP-1 (human, UniProt P08833 26-259)
T1 construct: Biotinylated in the ELISA assays; also called rhIGFBP-1
T1 sequence (looked up): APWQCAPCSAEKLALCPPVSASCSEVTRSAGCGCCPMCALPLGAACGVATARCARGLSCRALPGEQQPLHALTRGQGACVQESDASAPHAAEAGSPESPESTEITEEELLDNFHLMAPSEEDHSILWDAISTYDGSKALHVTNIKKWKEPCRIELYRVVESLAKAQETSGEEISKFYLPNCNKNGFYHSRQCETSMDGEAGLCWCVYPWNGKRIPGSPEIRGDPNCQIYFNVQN
Test: biotinylated-IGFBP-1 ELISA: peptide inhibits IGFBP-1 binding to IGF-I; ratio to bp1-01 (wt)
Positions of bridges follow the written chain, without caps; N, C: chain ends. Non-standard residues stand in square brackets, D forms with d. No end group written: not given here. Aib = CC(C)(N)C(=O)O
Quick reminder: number only, in ratio, skip the unit.

Recorded results for 4 binders are shown here.
CRAGP[dA]QWLCEKYFG (disulfide 1-10, Non-natural variant of bp1-01 (a = D-alanine)) [bp1-01 L6a] : 400
CRAGPLQ[Aib]LCEKYFG (disulfide 1-10, Non-natural variant of bp1-01; X stands for aib) [bp1-01 W8aib] : 24
CRA[dA]PLQWLCEKYFG (disulfide 1-10, Non-natural variant of bp1-01 (a = D-alanine)) [bp1-01 G4a] : 0.6
CRAGPL[Aib]WLCEKYFG (disulfide 1-10, Non-natural variant of bp1-01; X stands for aib) [bp1-01 Q7 aib] : 1.6

For record CR[dA]GPLQWLCEKYFG (disulfide 1-10 (inferred)) [bp1-01 A3a] the listed IC50 (mut)/IC50 (wt) is 34
